# target-entity: human MC3R (Homo sapiens, UniProt P41968)
# Construct: expressed in transfected cells; host or cells: HEK-293 cells stably expressing the GScAMP22F split-luciferase cAMP sensor (parent reporter line from Promega); MC3R clone generated in-house, G418 selection
# Sequence (P41968 whole entry): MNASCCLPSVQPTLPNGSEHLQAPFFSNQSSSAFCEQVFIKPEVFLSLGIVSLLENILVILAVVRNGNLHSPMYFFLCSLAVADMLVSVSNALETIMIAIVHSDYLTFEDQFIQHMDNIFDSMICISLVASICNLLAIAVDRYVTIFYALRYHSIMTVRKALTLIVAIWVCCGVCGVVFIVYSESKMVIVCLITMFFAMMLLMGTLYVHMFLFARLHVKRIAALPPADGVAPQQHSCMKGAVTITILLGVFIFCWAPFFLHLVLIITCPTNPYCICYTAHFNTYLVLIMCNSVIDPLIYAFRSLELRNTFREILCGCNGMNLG
# assay-explanation: split-luciferase cAMP sensor assay, agonist mode (measurement window 1), hMC3R
# Format: cell-based
# assay-context: agonist mode, hMC3R stable cell line; read-out: MC3R cAMP % max activation
Positions of bridges follow the written chain, without caps; N, C: chain ends. Non-standard residues stand in square brackets, D forms with d. Residues, ends and D or L forms follow the SMILES beside them. dDip = N[C@@H](C(=O)O)C(c1ccccc1)c1ccccc1; dPhe(4-Br) = N[C@H](Cc1ccc(Br)cc1)C(=O)O; dPhe(4-I) = N[C@H](Cc1ccc(I)cc1)C(=O)O; d2Nal = N[C@H](Cc1ccc2ccccc2c1)C(=O)O; NMeR = CN[C@@H](CCCNC(=N)N)C(=O)O; Nle = CCCC[C@H](N)C(=O)O
Response key: rule met means Emax >= 20%; rule not met means Emax < 20%.

Solved cases (10 shown):
# molecule, category-label
measured = [
    ("CCCC[C@H](NC(=O)[C@H](CCCNC(=N)N)NC(C)=O)C(=O)N[C@H]1CSSC[C@@H](C(N)=O)NC(=O)[C@@H](Cc2c[nH]c3ccccc23)NC(=O)[C@H](CCCNC(=N)N)NC(=O)[C@@H](Cc2ccc(Br)cc2)NC(=O)[C@H](Cc2c[nH]cn2)NC1=O [CTX-1231] (Ac-R[Nle]CH[dPhe(4-Br)]R[dW]C-NH2; disulfide 3-8 (inferred))", "rule met"),
    ("CCCC[C@H](NC(C)=O)C(=O)N[C@H]1CSSC[C@@H](C(N)=O)NC(=O)[C@@H](Cc2c[nH]c3ccccc23)NC(=O)[C@H](CCCNC(=N)N)NC(=O)[C@@H](Cc2ccc(I)cc2)NC(=O)[C@H](Cc2c[nH]cn2)NC1=O [CTX-1234] (Ac-[Nle]CH[dPhe(4-I)]R[dW]C-NH2; disulfide 2-7 (inferred))", "rule not met"),
    ("CC(=O)N[C@@H](CCCNC(=N)N)C(=O)N[C@H]1CSSC[C@@H](C(N)=O)NC(=O)[C@H](Cc2c[nH]c3ccccc23)NC(=O)[C@H](CCCNC(=N)N)NC(=O)[C@@H](Cc2ccc(Br)cc2)NC(=O)[C@@H]2CCCN2C(=O)[C@@H](C)NC1=O [CTX-2204] (Ac-RC[dA]P[dPhe(4-Br)]RWC-NH2; disulfide 2-8 (inferred))", "rule not met"),
    ("CC(=O)N[C@@H](CCCNC(=N)N)C(=O)N[C@H]1CSSC[C@@H](C(=O)N[C@@H](CCCCN)C(=O)N2CCC[C@H]2C(N)=O)NC(=O)[C@@H](Cc2c[nH]c3ccccc23)NC(=O)[C@H](CCCNC(=N)N)NC(=O)[C@@H](Cc2ccc(Br)cc2)NC(=O)[C@H](CCCNC(=N)N)NC(=O)[C@@H](C)NC1=O [CTX-1217] (Ac-RC[dA]R[dPhe(4-Br)]R[dW]CKP-NH2; disulfide 2-8)", "rule not met"),
    ("CC(=O)N[C@@H](CCCNC(=N)N)C(=O)N[C@H]1CSSC[C@@H](C(N)=O)NC(=O)[C@H](Cc2c[nH]c3ccccc23)NC(=O)[C@H](CCCNC(=N)N)NC(=O)[C@@H](Cc2ccc(Br)cc2)NC(=O)[C@H](Cc2c[nH]cn2)NC(=O)[C@@H](C)NC1=O", "rule met"),
    ("CC(=O)N[C@@H](CCCNC(=N)N)C(=O)N[C@H]1CSSC[C@@H](C(N)=O)NC(=O)[C@@H](Cc2c[nH]c3ccccc23)NC(=O)[C@H](CCCNC(=N)N)NC(=O)[C@@H](C(c2ccccc2)c2ccccc2)NC(=O)[C@H](CCCNC(=N)N)NC(=O)[C@@H](C)NC1=O [CTX-1280] (Ac-RC[dA]R[dDip]R[dW]C-NH2; disulfide 2-8 (inferred))", "rule not met"),
    ("CCCC[C@H](NC(=O)[C@H](CCCNC(=N)N)NC(C)=O)C(=O)N[C@H]1CSSC[C@@H](C(N)=O)NC(=O)[C@@H](Cc2c[nH]c3ccccc23)NC(=O)[C@H](CCCNC(=N)N)NC(=O)[C@@H](Cc2ccc(I)cc2)NC(=O)[C@H](Cc2c[nH]cn2)NC1=O [CTX-1233] (Ac-R[Nle]CH[dPhe(4-I)]R[dW]C-NH2; disulfide 3-8 (inferred))", "rule met"),
    ("CC(=O)N[C@@H](CCCNC(=N)N)C(=O)N[C@H]1CSSC[C@@H](C(N)=O)NC(=O)[C@@H](Cc2ccc3ccccc3c2)NC(=O)[C@H](CCCNC(=N)N)NC(=O)[C@@H](Cc2ccc(Br)cc2)NC(=O)[C@H](CCCNC(=N)N)NC(=O)[C@@H](C)NC1=O [CTX-1254] (Ac-RC[dA]R[dPhe(4-Br)]R[d2Nal]C-NH2; disulfide 2-8)", "rule not met"),
    ("CC(=O)N[C@@H](CCCNC(=N)N)C(=O)N[C@H]1CSSC[C@@H](C(=O)N[C@@H](CCCNC(=N)N)C(=O)N[C@@H](Cc2ccccc2)C(N)=O)NC(=O)[C@@H](Cc2c[nH]c3ccccc23)NC(=O)[C@H](CCCNC(=N)N)NC(=O)[C@@H](Cc2ccc(Br)cc2)NC(=O)[C@H](CCCNC(=N)N)NC(=O)[C@@H](C)NC1=O [CTX-1220] (Ac-RC[dA]R[dPhe(4-Br)]R[dW]CRF-NH2; disulfide 2-8 (inferred))", "rule met"),
    ("CC(=O)N[C@@H](CCCNC(=N)N)C(=O)N[C@H]1CSSC[C@@H](C(N)=O)NC(=O)[C@@H](Cc2c[nH]c3ccccc23)NC(=O)[C@H](CCCNC(=N)N)NC(=O)[C@@H](Cc2ccc(Br)cc2)NC(=O)[C@H](CCCNC(=N)N)N(C)C(=O)[C@@H](C)NC1=O [CTX-1248] (Ac-RC[dA][NMeR][dPhe(4-Br)]R[dW]C-NH2; disulfide 2-8 (inferred))", "rule not met"),
]

Kindly review the next molecule as well.
Problem: Please tell me: is the molecule CC(=O)N[C@@H](CCCNC(=N)N)C(=O)N[C@H]1CSSC[C@@H](C(N)=O)NC(=O)[C@@H](C)NC(=O)[C@H](CCCNC(=N)N)NC(=O)[C@@H](Cc2ccc(Br)cc2)NC(=O)[C@H](CCCNC(=N)N)NC(=O)[C@@H](C)NC1=O [CTX-1260] (Ac-RC[dA]R[dPhe(4-Br)]R[dA]C-NH2; disulfide 2-8) at or over 20% in terms of Emax?
Solution: rule not met
